assay: Stability at pH 7.4 and 37 degree Celsius (after 18 h); type: physicochemical; details: buffer
Measured remaining at 18 h, listed per entry.
measured-parameter: remaining at 18 h (%)

compound | scale-unit | test-value
CC(C)NCC(O)COC(=O)c1ccccc1Cl (configuration not stated) | % | 92
CC(C)NCC(O)COC(=O)c1ccccc1F (configuration not stated) | % | 83
CC(C)(C)NCC(O)COC(=O)c1ccccc1Cl (configuration not stated) | % | 98
Cc1ccccc1C(=O)OCC(O)CNC(C)C (configuration not stated) | % | 100
Cc1ccccc1C(=O)OCC(O)CNC(C)(C)C (configuration not stated) | % | 100
COc1ccc(CCNCC(O)COC(=O)c2ccccc2Cl)cc1OC (configuration not stated) | % | 59
CC(C)(C)NCC(O)COC(=O)c1ccccc1 (configuration not stated) | % | 99

----------
biological target: Adrenergic receptor beta (Homo sapiens, UniProt P08588+P07550+P13945); experiment: In Vitro inhibition of the beta adrenergic receptor in guinea pig atria; type: tissue-based, Cavia porcellus; conditions: target entry is the homologue from another species
measured-parameter: pA2

molecule | measured-parameter | test-value
COc1ccc(CCNCC(O)COC(=O)c2ccc(CO)cc2)cc1OC (stereo not drawn) | pA2 | < 5.5
CC(C)(C)NCC(O)COC(=O)CCc1ccccc1 (stereo not drawn) | pA2 | < 6
CC(C)(C)NCC(O)COC(=O)C(c1ccccc1)c1ccccc1 (stereo not drawn) | pA2 | < 5.5

----------
assay: T1/2 in canine blood; format: ADME, […], Canis lupus familiaris; conditions: dog

compound | value-qualifier | half-life, min
CCC(C)(C)NCC(O)COC(=O)c1ccccc1F (configuration not stated) | = | 6
CC(C)C(=O)NCC(C)(C)NCC(O)COC(=O)c1ccccc1F (configuration not stated) | = | 20
CC(C)NCC(O)COC(=O)c1ccccc1 (configuration not stated) | = | 6.8
CC(C)NCC(O)COc1cccc2ccccc12 (configuration not stated) | > | 180
C#CC(C)(C)NCC(O)COC(=O)c1ccccc1F (configuration not stated) | = | 12
CC(C)NCC(O)COC(=O)c1ccccc1Cl (configuration not stated) | = | 28
CC(C)(C)NCC(O)COC(=O)c1ccccc1 (configuration not stated) | = | 7.3

----------
target: Adrenergic receptor beta (Homo sapiens, UniProt P08588+P07550+P13945); assay: In Vitro inhibition of the beta adrenergic receptor in guinea pig atria; assay type: tissue-based, Cavia porcellus; conditions: target entry is the homologue from another species
Listed here are molecules together with their documented pA2.
measured-parameter: pA2

molecule | measured-parameter | value-qualifier | test-value
COc1ccc(C(=O)OCC(O)CNC(C)C)cc1 (stereo not drawn) | pA2 | = | 6
CC(C)(C)NCC(O)COC(=O)c1ccncc1 (stereo not drawn) | pA2 | = | 5.3
CC(C)NCC(O)COC(=O)c1ccc(OCc2ccccc2)cc1 (stereo not drawn) | pA2 | < | 6
CC(C)(CNC(N)=O)NCC(O)COC(=O)c1ccccc1F (stereo not drawn) | pA2 | = | 8.1
Cc1cc(N)ccc1C(=O)OCC(O)CNC(C)(C)C (stereo not drawn) | pA2 | = | 7.8
Cc1cccc(C(=O)OCC(O)CNC(C)C)c1 (stereo not drawn) | pA2 | = | 6.8
CC(C)NCC(O)COC(=O)c1cccc2ccccc12 (stereo not drawn) | pA2 | = | 6.6
Cc1cc([N+](=O)[O-])ccc1C(=O)OCC(O)CNC(C)(C)C (stereo not drawn) | pA2 | = | 6.6

----------
target: Adrenergic receptor beta (Homo sapiens, UniProt P08588+P07550+P13945); assay: In Vitro inhibition of the beta adrenergic receptor in guinea pig atria; type: tissue-based, Cavia porcellus; settings: target entry is the homologue from another species

compound | value-qualifier | pA2
CC(=O)NCC(C)NCC(O)COC(=O)c1ccccc1F (stereo unspecified) | < | 6.3
CC(C)(C)NCC(O)COC(=O)C1c2ccccc2-c2ccccc21 (stereo unspecified) | < | 6
COc1ccc(CCNCC(O)COC(=O)c2cccc(F)c2)cc1OC (stereo unspecified) | = | 6.4
CC(C)(C)NCC(O)COC(=O)c1ccc(O)cc1 (stereo unspecified) | = | 7.4
CC(C)(C)NCC(O)COC(=O)c1ccc(F)cc1 (stereo unspecified) | = | 7.3
COc1ccc(CCNCC(O)COC(=O)c2ccc(C)cc2)cc1OC (stereo unspecified) | = | 6.6
C#CC(C)(C)NCC(O)COC(=O)c1ccccc1F (stereo unspecified) | = | 6.6
CC(C)(C)NCC(O)COC(=O)c1ccccc1 (stereo unspecified) | = | 6.8
COc1ccc(CCNCC(O)COC(=O)c2ccc(F)cc2)cc1OC (stereo unspecified) | = | 7
CC(C)(C)NCC(O)COC(=O)c1cccc(N)c1 (stereo unspecified) | = | 6.7
COc1ccc(CCNCC(O)COC(=O)c2ccccc2)cc1OC (stereo unspecified) | = | 7

----------
target: Adrenergic receptor beta (Homo sapiens, UniProt P08588+P07550+P13945); experiment: In vitro blocking of beta adrenergic receptor in guinea pig trachea; type: tissue-based, Cavia porcellus; conditions: target entry is the homologue from another species
Reported pA2 values follow for various compounds

compound | pA2
CC(C)NCC(O)COC(=O)c1ccccc1 (stereo not given) | 7.2
CC(C)NCC(O)COC(=O)c1ccc(O)cc1 (stereo not given) | 7.2
CC(C)(CNC(=O)Cc1ccccc1)NCC(O)COC(=O)c1ccccc1F (stereo not given) | 8.1
COCCOC(=O)NCC(C)(C)NCC(O)COC(=O)c1ccccc1F (stereo not given) | 7.7
COc1ccc(CCNCC(O)COC(=O)c2ccccc2F)cc1OC (stereo not given) | 5.7
CC(C)(C)NCC(O)COC(=O)c1cccc2ccccc12 (stereo not given) | 7.4
Cc1cccc(C(=O)OCC(O)CNC(C)C)c1 (stereo not given) | 7.3
CCCOc1ccccc1C(=O)OCC(O)CNC(C)C (stereo not given) | 7.1
Cc1ccccc1OCC(O)CNC(C)C (stereo not given) | 8.2
COc1ccc(CCNCC(O)COC(=O)c2cccc(F)c2)cc1OC (stereo not given) | 6.2
COc1ccc(CCNCC(O)COC(=O)c2ccc(N)cc2)cc1OC (stereo not given) | 5.7
CC(C)(CNS(=O)(=O)c1ccccc1)NCC(O)COC(=O)c1ccccc1F.O=C(O)C(=O)O (stereo not given) | 7.9
CNC(=O)NCC(C)(C)NCC(O)COC(=O)c1ccccc1F (stereo not given) | 8.1
CC(C)(C)NCC(O)COC(=O)c1ccc(O)cc1 (stereo not given) | 6.5
CC(C)NCC(O)COC(=O)c1ccc(F)cc1 (stereo not given) | 7.3
